# TEST_METHOD_NOTES: Plasma protein binding, human
# Type: in vitro ADME
TEST_READOUT: fraction unbound

[in] Look up fraction unbound for this molecule: O=C(Nc1cccc2ccccc12)c1cc2c(cc1Br)OCO2
[out] 0.0266

###

# TEST_METHOD_NOTES: Plasma protein binding, mouse
# Assay type: in vitro ADME
TEST_READOUT: fraction unbound
Please respond with just the number, no unit label.

[in] What does the data say about its fraction unbound? Entry: O=C(Nc1cccc2ccccc12)c1cc2c(cc1Br)OCO2
[out] 0.0212

###

# TEST_METHOD_NOTES: Caco-2 permeability
# Assay type: in vitro ADME
# CONDITION_PARAMETERS: human
TEST_READOUT: efflux ratio
// return a plain number; no unit text

[in] Endpoint output: efflux ratio of O=C(Nc1cccc2ccccc12)c1cc2c(cc1Br)OCO2 . Value?
[out] 0.41

###

# TEST_METHOD_NOTES: Aqueous solubility in PBS
# Assay type: physicochemical
# CONDITION_PARAMETERS: pH 4, aqueous buffer
TEST_READOUT: solubility
In your response, put the unit directly after the numeric value.

[in] Look at this compound and give its reported solubility. O=C(Nc1cccc2ccccc12)c1cc2c(cc1Br)OCO2
[out] 3.57 µM
